# Target Under Test: Glucocorticoid receptor (Homo sapiens, UniProt P04150)
# Sequence (P04150 whole entry): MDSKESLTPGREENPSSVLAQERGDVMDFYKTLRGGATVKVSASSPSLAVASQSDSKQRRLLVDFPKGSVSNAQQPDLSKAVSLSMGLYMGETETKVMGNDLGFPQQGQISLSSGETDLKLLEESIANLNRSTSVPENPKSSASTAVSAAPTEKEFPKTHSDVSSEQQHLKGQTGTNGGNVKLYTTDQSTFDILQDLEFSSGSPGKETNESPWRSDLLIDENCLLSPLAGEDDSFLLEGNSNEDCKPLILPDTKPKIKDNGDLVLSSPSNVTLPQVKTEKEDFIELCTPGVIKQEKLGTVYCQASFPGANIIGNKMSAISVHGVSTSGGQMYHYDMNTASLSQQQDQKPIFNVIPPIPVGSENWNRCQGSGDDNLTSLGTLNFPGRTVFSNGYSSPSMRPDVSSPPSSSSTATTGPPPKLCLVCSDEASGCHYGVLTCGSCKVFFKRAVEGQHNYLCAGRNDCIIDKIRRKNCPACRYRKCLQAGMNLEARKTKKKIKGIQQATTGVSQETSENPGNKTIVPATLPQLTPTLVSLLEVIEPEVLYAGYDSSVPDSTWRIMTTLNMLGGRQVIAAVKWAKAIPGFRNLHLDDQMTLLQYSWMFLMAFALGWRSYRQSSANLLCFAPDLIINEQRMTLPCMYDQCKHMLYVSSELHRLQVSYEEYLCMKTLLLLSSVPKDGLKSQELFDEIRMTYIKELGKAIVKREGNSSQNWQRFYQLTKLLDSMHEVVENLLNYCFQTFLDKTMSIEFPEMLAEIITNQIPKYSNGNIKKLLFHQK
# Measurement Description: Antagonist activity at human GR […] domain transfected in CHO cells co-transfected with MMTV-luciferase gene assessed as inhibition of cortisol-induced luciferase activity
# Type: cell-based
Readout: EC50 (nM)

>>> number("COc1ncc(C#N)cc1-c1ccc([C@@H](C)NS(=O)(=O)c2cn(C)nc2C(F)(F)F)cc1")
100

====

# Measurement Description: Intrinsic clearance in rat liver microsomes measured per mg of protein
# Assay type: ADME, Microsome
Readout: microsomal CLint

>>> result("COc1ncc(C#N)cc1-c1ccc([C@@H](C)NS(=O)(=O)c2cn(C)nc2C(F)(F)F)cc1")
"< 12 µL/min/mg"

====

# Target Under Test: Glucocorticoid receptor (Homo sapiens, UniProt P04150)
# Measurement Description: Binding affinity to human recombinant GR by competition ligand binding fluorescence polarization assay
Readout: EC50 (nM)

>>> number("COc1ccc(F)cc1-c1ccc([C@@H](C)NS(=O)(=O)c2cn(C)nc2C(F)(F)F)cc1")
3.98
>>> number("COc1ncccc1-c1ccc([C@@H](C)NS(=O)(=O)c2cn(C)nc2C(F)(F)F)cc1")
12.6
>>> number("Cc1noc(C)c1S(=O)(=O)N[C@H](C)c1ccc(-c2cccnc2OC(F)F)cc1")
10
>>> number("Cc1noc(C)c1-c1ccc(CNS(=O)(=O)c2c(C)noc2C)cc1")
3.98
>>> number("COc1ccc(F)cc1-c1ccc(CNS(=O)(=O)c2c(C)noc2C)cc1")
12.6
>>> number("COc1ccc(F)cc1-c1ccc([C@H](C)NS(=O)(=O)c2c(C)noc2C)cc1")
25.1
>>> number("COc1ccc(F)cc1-c1ccc([C@@H](C)NS(=O)(=O)c2c(C)noc2C)cc1")
5.01
>>> number("COc1ncccc1-c1ccc([C@@H](C)NS(=O)(=O)c2c(C)noc2C)cc1")
25.1

====

# Target Under Test: Mineralocorticoid receptor (Homo sapiens, UniProt P08235)
# Sequence (P08235 whole entry, the tested form may be a part): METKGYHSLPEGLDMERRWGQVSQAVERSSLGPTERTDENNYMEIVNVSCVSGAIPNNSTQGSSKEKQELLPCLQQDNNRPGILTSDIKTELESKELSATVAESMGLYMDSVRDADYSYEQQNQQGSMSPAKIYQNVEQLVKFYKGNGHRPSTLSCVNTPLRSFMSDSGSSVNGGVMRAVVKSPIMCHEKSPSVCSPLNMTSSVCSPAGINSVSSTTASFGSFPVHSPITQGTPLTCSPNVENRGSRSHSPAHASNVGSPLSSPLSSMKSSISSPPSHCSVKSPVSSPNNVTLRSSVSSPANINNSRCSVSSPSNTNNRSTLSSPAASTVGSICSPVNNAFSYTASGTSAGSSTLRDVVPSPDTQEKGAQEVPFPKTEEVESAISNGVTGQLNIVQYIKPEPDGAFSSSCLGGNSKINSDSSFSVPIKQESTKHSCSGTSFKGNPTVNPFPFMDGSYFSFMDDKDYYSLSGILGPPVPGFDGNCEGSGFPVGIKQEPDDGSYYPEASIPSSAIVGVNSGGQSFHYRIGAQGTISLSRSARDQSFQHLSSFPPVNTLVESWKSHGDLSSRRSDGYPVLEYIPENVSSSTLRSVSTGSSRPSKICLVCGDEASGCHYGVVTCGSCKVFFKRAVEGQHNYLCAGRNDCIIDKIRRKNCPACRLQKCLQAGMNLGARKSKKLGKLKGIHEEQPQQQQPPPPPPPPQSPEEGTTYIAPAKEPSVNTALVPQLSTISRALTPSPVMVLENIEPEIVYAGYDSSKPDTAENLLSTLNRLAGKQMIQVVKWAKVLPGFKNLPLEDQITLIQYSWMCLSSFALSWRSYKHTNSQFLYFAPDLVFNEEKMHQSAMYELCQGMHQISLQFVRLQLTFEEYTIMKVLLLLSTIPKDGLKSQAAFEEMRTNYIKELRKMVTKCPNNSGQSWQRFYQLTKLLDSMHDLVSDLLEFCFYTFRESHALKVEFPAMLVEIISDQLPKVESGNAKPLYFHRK
# Measurement Description: Antagonist activity at human MR ligand binding domain transfected in CHO cells co-transfected with MMTV-luciferase gene assessed as inhibition of cortisol-induced luciferase activity
pEC50: −log10 of the molar value.
Readout: pEC50

>>> result("COc1ncc(C#N)cc1-c1ccc([C@@H](C)NS(=O)(=O)c2cn(C)nc2C(F)(F)F)cc1")
"< 5.00"

====

The reader will find reported microsomal CLint values listed item by item below.
# Measurement Description: Intrinsic clearance in human liver microsomes measured per mg of protein
# Type: ADME, Microsome
Readout: microsomal CLint

>>> result("COc1ncc(C#N)cc1-c1ccc([C@@H](C)NS(=O)(=O)c2cn(C)nc2C(F)(F)F)cc1")
"< 12 µL/min/mg"
>>> result("Cc1noc(C)c1S(=O)(=O)N[C@H](C)c1ccc(-c2cccnc2OC(F)F)cc1")
"> 270 µL/min/mg"

====

# Target Under Test: Glucocorticoid receptor (Homo sapiens, UniProt P04150)
# Measurement Description: Binding affinity to human recombinant GR by competition ligand binding fluorescence polarization assay
# key: entry, value: EC50
Readout: EC50 (µM)

>>> number("COc1ccccc1-c1ccc(CNS(=O)(=O)c2c(C)noc2C)cc1")
0.0316
>>> number("Cc1noc(C)c1S(=O)(=O)NCc1ccc(-c2ccccc2)cc1")
1
>>> number("COc1ccc(F)cc1-c1ccc(CNS(=O)(=O)c2cc(Cl)ccc2Cl)cc1")
0.002
>>> number("COc1ncc(C#N)cc1-c1ccc([C@@H](C)NS(=O)(=O)c2c(C)noc2C)cc1")
0.00631
>>> number("COc1ncc(C#N)cc1-c1ccc([C@@H](C)NS(=O)(=O)c2cn(C)nc2C(F)(F)F)cc1")
0.0126

====

# Measurement Description: Volume of distribution at steady state in Wistar rat at 2 mg/kg, iv; 10 mg/kg, po
# Assay type: ADME, organism-based
# Condition: in vivo, read-out: Vdss
Readout: Vd (L/kg)

>>> number("COc1ncc(C#N)cc1-c1ccc([C@@H](C)NS(=O)(=O)c2cn(C)nc2C(F)(F)F)cc1")
0.7

====

# Target Under Test: Progesterone receptor (Homo sapiens)
# Sequence (P06401 whole entry): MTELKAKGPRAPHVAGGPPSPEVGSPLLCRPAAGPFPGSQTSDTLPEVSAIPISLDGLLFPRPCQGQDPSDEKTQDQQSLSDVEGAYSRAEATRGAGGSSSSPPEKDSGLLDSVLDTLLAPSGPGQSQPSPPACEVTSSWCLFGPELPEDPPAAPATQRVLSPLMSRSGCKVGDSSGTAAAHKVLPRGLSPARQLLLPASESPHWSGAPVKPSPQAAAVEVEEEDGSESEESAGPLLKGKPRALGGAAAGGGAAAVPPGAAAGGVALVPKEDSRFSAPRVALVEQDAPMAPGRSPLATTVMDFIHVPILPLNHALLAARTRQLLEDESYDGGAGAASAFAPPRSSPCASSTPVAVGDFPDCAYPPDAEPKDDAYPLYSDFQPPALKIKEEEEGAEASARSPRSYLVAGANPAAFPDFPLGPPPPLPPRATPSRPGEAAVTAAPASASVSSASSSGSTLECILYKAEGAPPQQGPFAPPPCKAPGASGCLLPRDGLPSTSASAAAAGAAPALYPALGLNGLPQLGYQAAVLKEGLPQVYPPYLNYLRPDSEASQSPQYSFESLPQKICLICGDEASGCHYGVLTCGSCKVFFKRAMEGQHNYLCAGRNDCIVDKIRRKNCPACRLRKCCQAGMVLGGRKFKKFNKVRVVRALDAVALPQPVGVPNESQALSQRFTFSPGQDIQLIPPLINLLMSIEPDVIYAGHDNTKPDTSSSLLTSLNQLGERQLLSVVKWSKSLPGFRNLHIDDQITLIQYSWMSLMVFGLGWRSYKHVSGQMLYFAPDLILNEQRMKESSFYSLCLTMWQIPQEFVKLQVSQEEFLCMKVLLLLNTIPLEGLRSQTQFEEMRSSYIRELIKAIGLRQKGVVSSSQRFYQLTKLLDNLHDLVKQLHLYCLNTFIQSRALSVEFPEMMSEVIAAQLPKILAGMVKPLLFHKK
# Measurement Description: Binding affinity to human recombinant PR by competition ligand binding fluorescence polarization assay
Readout: log10 EC50 (log10 of the value in µM)

>>> number("COc1ccc(F)cc1-c1ccc(CNS(=O)(=O)c2c(C)noc2C)cc1")
-0.90
>>> number("COc1ccc(F)cc1-c1ccc(CNS(=O)(=O)c2cc(Cl)ccc2Cl)cc1")
-1.30
>>> number("COc1ccc(F)cc1-c1ccc([C@@H](C)NS(=O)(=O)c2c(C)noc2C)cc1")
-0.70
>>> number("Cc1noc(C)c1S(=O)(=O)N[C@H](C)c1ccc(-c2cccnc2OC(F)F)cc1")
-0.20
>>> number("COc1ncc(C#N)cc1-c1ccc([C@@H](C)NS(=O)(=O)c2c(C)noc2C)cc1")
-1.10
>>> number("COc1ccc(F)cc1-c1ccc([C@H](C)NS(=O)(=O)c2c(C)noc2C)cc1")
-0.60
>>> number("COc1ccccc1-c1ccc(CNS(=O)(=O)c2c(C)noc2C)cc1")
-0.70
>>> number("COc1ccc(F)cc1-c1ccc([C@@H](C)NS(=O)(=O)c2cn(C)nc2C(F)(F)F)cc1")
-0.10
>>> number("Cc1noc(C)c1-c1ccc(CNS(=O)(=O)c2c(C)noc2C)cc1")
-2.10
>>> number("COc1ncccc1-c1ccc([C@@H](C)NS(=O)(=O)c2c(C)noc2C)cc1")
-0.10

====

Measured pEC50 by item
# Target Under Test: Progesterone receptor (Homo sapiens)
# Measurement Description: Binding affinity to human recombinant PR by competition ligand binding fluorescence polarization assay
pEC50: −log10 of the molar value.
Readout: pEC50

>>> result("Cc1noc(C)c1S(=O)(=O)NCc1ccc(-c2ccccc2)cc1")
"< 5.00"
>>> result("COc1ncc(C#N)cc1-c1ccc([C@@H](C)NS(=O)(=O)c2cn(C)nc2C(F)(F)F)cc1")
"< 5.00"
>>> result("COc1ncccc1-c1ccc([C@@H](C)NS(=O)(=O)c2cn(C)nc2C(F)(F)F)cc1")
"< 5.00"
